Consider the following molecules; for each one, report its SUV (myocardium) 180 minutes.
Assay: PET test using normal cynomolgus monkey (heart contrast PET, SUV in myocardium and bone ROI)
Assay type: in vivo
Conditions: male normal cynomolgus monkey, about 300 MBq i.v., ROI myocardium, 160 to 180 minutes after administration; Examples 1 case, Reference Example 15 average ± standard error of 3 cases
Text: Solutions containing each compound prepared in Examples 1 to 7 and Reference Example 15 ([^18F]FTO) were used to perform a heart contrast PET test using normal cynomolgus monkeys. […] The SUV values quantified by setting the ROI for the myocardium and the bone of each compound are shown in Tables 10 and 11 as SUV (myocardium) and SUV (bone). […]
Number only, no unit.

Req: // lookup SUV (myocardium) 180 minutes for O=C(O)CCSCCCC/C=C\CCCCCCCC[18F] [Reference Example 15, reference compound]
Resp: 5.21

Req: Return reported SUV (myocardium) 180 minutes; argument: CCCCCCCCC1CC1CC([18F])CCSCCC(=O)O (centres unmarked) [Example 6]
Resp: 3.98

Req: I would be grateful if you could share the reported SUV (myocardium) 180 minutes for CCCCCCCCCCCC([18F])CCSCCC(=O)O (centres unmarked) [Example 4] .
Resp: 3.92

Req: // returns reported SUV (myocardium) 180 minutes for input CCCCCCCCCC([18F])CCSCCC(=O)O (centres unmarked) [Example 2]
Resp: 5.92

Req: Query (molecule): CCCCCCCC/C=C/CC([18F])CCSCCC(=O)O (centres unmarked) [Example 5] ; field requested: SUV (myocardium) 180 minutes
Resp: 5.09

====

assay: PET test using normal cynomolgus monkey (heart contrast PET, SUV in myocardium and bone ROI); assay type: in vivo; details: male normal cynomolgus monkey, about 300 MBq i.v., ROI myocardium, 20-minute section ending 60 minutes after administration; Examples 1 case, Reference Example 15 average ± standard error of 3 cases
MEASUREMENT TYPE: SUV (myocardium) 60 minutes
Answer using only a numeral; do not append any unit.

Req: Requested read-out: SUV (myocardium) 60 minutes. Entry: CCCCCCCCCCCC([18F])CCSCCC(=O)O (centres unmarked) [Example 4]
Resp: 5.44

Req: Endpoint output: SUV (myocardium) 60 minutes of CCCCC/C=C\C/C=C\CC([18F])CCSCCC(=O)O (centres unmarked) [Example 3] . Value?
Resp: 3.20

Req: I am curious: what SUV (myocardium) 60 minutes value has been reported for CCCCCCCCC1CC1CC([18F])CCSCCC(=O)O (centres unmarked) [Example 6] ?
Resp: 6.24

Req: Using the record for CCCCCCCCCC([18F])CCSCCC(=O)O (centres unmarked) [Example 2] , report its SUV (myocardium) 60 minutes.
Resp: 7.53

Req: Please give the measured SUV (myocardium) 60 minutes for this molecule: O=C(O)CCSCCCC/C=C\CCCCCCCC[18F] [Reference Example 15, reference compound]
Resp: 6.54

====

assay: PET test using normal cynomolgus monkey (heart contrast PET, SUV in myocardium and bone ROI); type: in vivo; settings: male normal cynomolgus monkey, about 300 MBq i.v., ROI bone (near the spine), 160 to 180 minutes after administration; n.d. = target organ cannot be confirmed in the image and ROI cannot be set
For each of the compounds below, state its SUV (bone) 180 minutes.

Req: Query: SUV (bone) 180 minutes; subject: CC/C=C\C/C=C\C/C=C\CC([18F])CCSCCC(=O)O (stereo not shown) [Example 1]
Resp: 0.79

Req: What does the record list as SUV (bone) 180 minutes for CCCCCCCC/C=C/CC([18F])CCSCCC(=O)O (stereo not shown) [Example 5] ?
Resp: 1.40

Req: What measured SUV (bone) 180 minutes goes with CCCCC/C=C\C/C=C\CC([18F])CCSCCC(=O)O (stereo not shown) [Example 3] ?
Resp: 2.08

Req: Given CCCCCCCCC([18F])CCSCCCCC(=O)O (stereo not shown) [Example 7] , state its recorded SUV (bone) 180 minutes.
Resp: 6.36

Req: Which SUV (bone) 180 minutes is listed for O=C(O)CCSCCCC/C=C\CCCCCCCC[18F] [Reference Example 15, reference compound] ?
Resp: 5.05 ± 0.99

Req: If you can, please state the reported SUV (bone) 180 minutes value of CCCCCCCCCC([18F])CCSCCC(=O)O (stereo not shown) [Example 2] .
Resp: 1.14

Req: I am curious: what SUV (bone) 180 minutes value has been reported for CCCCCCCCCCCC([18F])CCSCCC(=O)O (stereo not shown) [Example 4] ?
Resp: 1.51
